# experimental_system: Human immunodeficiency virus type 1 integrase (Human immunodeficiency virus 1)
# Sequence (Q7ZJM1 whole entry): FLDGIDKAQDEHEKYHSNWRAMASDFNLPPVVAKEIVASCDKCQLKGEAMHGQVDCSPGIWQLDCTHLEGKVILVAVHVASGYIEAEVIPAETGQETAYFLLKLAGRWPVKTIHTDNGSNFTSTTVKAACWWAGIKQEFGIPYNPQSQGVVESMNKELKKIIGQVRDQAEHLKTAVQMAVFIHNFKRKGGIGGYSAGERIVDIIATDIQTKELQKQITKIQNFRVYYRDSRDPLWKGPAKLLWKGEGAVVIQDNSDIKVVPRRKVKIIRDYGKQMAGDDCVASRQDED
# method: Inhibition of HIV1 recombinant wild type integrase strand transfer activity by gel-based assay
readout_kind: IC50
# do not omit the unit; it follows the number

Some compounds with known IC50 results, for comparison:
What measured IC50 goes with O=C(NCc1cccc(F)c1)c1nc(-c2ccc(F)cc2)[nH]c(=O)c1O ? 3 µM

Quick one: O=C(NCc1ccc(F)cc1)c1nc(-c2ccc(Br)cc2)[nH]c(=O)c1O 1 µM

Next:
What measured IC50 goes with O=C(NCc1ccc(F)cc1)c1nc(-c2ccc(F)cc2)[nH]c(=O)c1O ? 0.6 µM

Quick one: O=C(NCc1cccc(Cl)c1)c1nc(-c2ccc(F)cc2)[nH]c(=O)c1O 1.4 µM

Quick one: O=C(NCc1ccccc1)c1nc(-c2ccccc2)nc(O)c1O 8 µM

Quick one: O=C(NCc1ccc(F)c(F)c1)c1nc(-c2ccc(F)cc2)[nH]c(=O)c1O 1 µM

Quick one: O=C(NCc1cccc(Cl)c1F)c1nc(-c2ccc(F)cc2)[nH]c(=O)c1O 1.4 µM

* * *

CC50 listing for selected molecules.
# method: Cytotoxicity against human MT4 cells assessed as cell viability by MTT assay
# Type: cell-based
// return numeric value only (unit: µM, not printed)

Some molecules with known CC50 results, for comparison:
What measured CC50 goes with COc1ccc(CNC(=O)c2nc(-c3ccc(F)cc3)[nH]c(=O)c2O)cc1 ? 44

Quick one: Cc1ccc(CNC(=O)c2nc(-c3ccc(F)cc3)[nH]c(=O)c2O)cc1C 33.5

Quick one: O=C(NCc1ccccc1F)c1nc(-c2ccc(F)cc2)[nH]c(=O)c1O 28.5

Quick one: O=C(NCc1ccc(O)cc1)c1nc(-c2ccc(F)cc2)[nH]c(=O)c1O 49

Quick one: O=C(NCc1cccc(F)c1)c1nc(-c2ccc(F)cc2)[nH]c(=O)c1O 49.5

Next:
What measured CC50 goes with O=C(NCc1ccc(F)c(F)c1)c1nc(-c2ccc(F)cc2)[nH]c(=O)c1O ? 31

* * *

# method: Cytotoxicity against human MT4 cells assessed as cell viability by MTT assay
# Assay type: cell-based
readout_kind: CC50 (µM)
// return numeric value only (unit: µM, not printed)

Some molecules with known CC50 results, for comparison:
What measured CC50 goes with O=C(NCCc1ccc(F)cc1)c1nc(-c2ccc(F)cc2)[nH]c(=O)c1O ? 30

Quick one: O=C(NCc1ccc(F)c(Cl)c1)c1nc(-c2ccc(F)cc2)[nH]c(=O)c1O 45.5

Next:
What measured CC50 goes with O=C(NCc1ccc(Br)cc1)c1nc(-c2ccc(F)cc2)[nH]c(=O)c1O ? 47.5

Quick one: O=C(NCc1cccc(Cl)c1)c1nc(-c2ccc(F)cc2)[nH]c(=O)c1O 35

Where these numbers come from: ChEMBL document CHEMBL3352278
